Tested on: T. cruzi-infected H9C2 cardiomyocytes, high-content imaging
Test: intracellular T. cruzi amastigote inhibition, imaging, H9C2 host cardiomyocytes, host toxicity (AID 1159565);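 also: infected cells incubated 72 h after plating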
Conditions: measured here: H9C2 host cell toxicity
quantity: IC50

Note to self: IC50 recorded for `Cc1ccc(S(=O)(=O)Nc2ccc(CN3CCN(C(=O)c4cccc(C#N)c4)CC3)cc2)cc1` was > 50 µM

Note to self: IC50 recorded for O=C(NCCc1ccccn1)C(c1cn[nH]c1)N1CCN(c2ccc(Cl)c(Cl)c2)CC1 (stereo not drawn) was > 50 µM

Note to self: IC50 recorded for `CN(Cc1ccccc1)Cc1nnnn1C1CCN(Cc2ccc(-n3ccnc3)cc2)CC1` was > 50 µM
